- Test details: Lipophilicity, log D of the compound at pH 7.4
- Type: physicochemical
- Condition label: buffer

Compound | logD
CC(C)(N)CNC(=O)C[C@H]1CC[C@@]2(CC1)C[C@@]1(OO2)C2CC3CC(C2)CC1C3 | 1.83
c1cc([C@H]2CC[C@@]3(CC2)C[C@@]2(OO3)C3CC4CC(C3)CC2C4)ccc1OCCN1CCOCC1 | 5.56
CC(C)(N)CNC(=O)C[C@H]1CC[C@]2(CC1)OO[C@]1(O2)C2CC3CC(C2)CC1C3 | 0.69
CC(C)(N)CNC(=O)CC1CCC2(CC1)OOC1(OO2)C2CC3CC(C2)CC1C3 (stereo unspecified) | 0.87
CC(C)(N)CNC(=O)CC1CCC2(CC1)COC1(OO2)C2CC3CC(C2)CC1C3 (stereo unspecified) | 1.05
c1cc([C@H]2CC[C@]3(CC2)OO[C@]2(O3)C3CC4CC(C3)CC2C4)ccc1OCCN1CCOCC1 | 4.53
